# Subject of test: Glycogen phosphorylase, muscle form (Oryctolagus cuniculus)
# Assay details: Inhibition of rabbit muscle glycogen phosphorylase A assessed as release of inorganic phosphate from glucose-1- phosphate in presence of glycogen after 30 mins by malachite green based assay
pIC50: −log10 of the molar value.
Measurement name: pIC50

Some solved cases for reference:
In [3]: df
Out[3]:
                                test_smiles  meas_value
0  O=C(Cn1cccc(NC(=O)Nc2ccc(NC(=O)Nc3cccn(CC(=O)NCc4ccc(Cl)c(Cl)c4)c3=O)cc2)c1=O)NCc1ccc(Cl)c(Cl)c1        6.64
1  CCOC(=O)Cn1cccc(NC(=O)Nc2ccc(NC(=O)Nc3cccn(CC(=O)OCC)c3=O)cc2)c1=O        5.51
2  CCCNC(=O)Cn1cccc(NC(=O)Nc2ccc(NC(=O)Nc3cccn(CC(=O)NCCC)c3=O)cc2)c1=O        5.80

I. O=c1c(NCc2ccc(Cl)c(Cl)c2)cccn1Cc1ccccc1
II. O=C(Cn1cccc(NCc2ccc(CNc3cccn(CC(=O)NCc4ccc(Cl)c(Cl)c4)c3=O)s2)c1=O)NCc1ccc(Cl)c(Cl)c1
Enquiry: Pick one: I or II . Which has the bigger pIC50 number? # respond with the chosen item's label
Return: II
(II: 6.59, I: 4.48)

----------
# Subject of test: Glycogen phosphorylase, muscle form (Oryctolagus cuniculus)
# Assay details: Inhibition of rabbit muscle glycogen phosphorylase A assessed as release of inorganic phosphate from glucose-1- phosphate in presence of glycogen at 222 uM after 30 mins by malachite green based assay relative to control
The source made the active and inactive calls. No cut-off for these calls is given here.
Measurement name: inhibition

Some molecules with recorded inhibition:
                                   molecule  meas_value
0  O=C(Cn1cccc(NC(=O)c2ccccc2)c1=O)NCCNC(=O)Cn1cccc(NC(=O)c2ccccc2)c1=O    inactive
1   O=c1c(NCc2ccc(Cl)c(Cl)c2)cccn1Cc1ccccc1       > 85%
2  O=C(Cn1cccc(NCc2ccccc2)c1=O)NCc1cn(Cc2ccccc2)nn1         60%
3           O=c1c(NCc2ccccc2)cccn1Cc1ccccc1    inactive
4  O=C(NCc1ccccc1)C1CCCN(C(=O)c2ccccc2)C1=O (stereo unspecified)    inactive
5           Cn1cccc(NCc2ccc(Cl)c(Cl)c2)c1=O         34%

Enquiry: Fill in the blank: the reported inhibition of O=C(NCc1ccc(Cl)c(Cl)c1)C1CCCN(C(=O)c2ccccc2)C1=O (stereo unspecified) is ____.
Return: 39%

Enquiry: Report inhibition for CCOC(=O)Cn1cccc(NCc2ccc(CNc3cccn(CC(=O)OCC)c3=O)s2)c1=O please.
Return: 29%

Enquiry: Dear colleague, I am looking for the recorded inhibition of the following molecule: CCOC(=O)Cn1cccc(NC(=O)Nc2ccc(NC(=O)Nc3cccn(CC(=O)OCC)c3=O)cc2)c1=O
Return: > 85%

Enquiry: Consider the molecule Cc1ccn(CC(=O)NCc2ccc(Cl)c(Cl)c2)c(=O)c1NCc1ccccc1 and give its measured inhibition.
Return: 38%

Enquiry: Using the record for O=C(NCc1ccccc1)C1CCCN(C(=O)c2ccccc2Cl)C1=O (stereo unspecified) , report its inhibition.
Return: 38%
